Measured values drawn from ChEMBL document CHEMBL1152718 for this set.

Test: AUC in rat at 3 mg/kg, po
Assay type: ADME, organism-based, Plasma
Set-up: dose 3 mg/kg, route oral
Settings: plasma
Quantity: AUC

[[record]]
compound = "C=CCNC(=O)C(=O)C(CCC)NC(=O)[C@@H]1[C@@H]2[C@H](CN1C(=O)[C@@H](NC(=O)N[C@H](CN1CCCS1(=O)=O)C(C)(C)C)C(C)(C)C)C2(C)C (stereo partly drawn)"
quantity = "AUC"
obs_value = "0.09 µM·h"

[[record]]
compound = "C=CCNC(=O)C(=O)C(CC1CC1)NC(=O)[C@@H]1[C@@H]2[C@H](CN1C(=O)[C@@H](NC(=O)N[C@H](CN1Cc3ccccc3S1(=O)=O)C(C)(C)C)C(C)(C)C)C2(C)C (stereo partly drawn)"
quantity = "AUC"
obs_value = "0.705 µM·h"

[[record]]
compound = "C=CCNC(=O)C(=O)C(CCCC)NC(=O)[C@@H]1[C@@H]2[C@H](CN1C(=O)[C@@H](NC(=O)N[C@H](CN1Cc3ccccc3S1(=O)=O)C(C)(C)C)C(C)(C)C)C2(C)C (stereo partly drawn)"
quantity = "AUC"
obs_value = "1.43 µM·h"

